Assay: Cytotoxicity against HMEC1 cells after 72 hrs by MTT assay
Assay type: cell-based, HMEC-1
Conditions: human
assay.metric: CC50 at 72 h

Data point: Cc1c(CN2CCCC2)cc(-c2ccccc2)n1Nc1ccnc2cc(Cl)ccc12 ; CC50 at 72 h = 12.9 µM

Data point: CCN(CC)Cc1cc(-c2ccc(Cl)cc2)n(Nc2ccnc3cc(Cl)ccc23)c1C ; CC50 at 72 h = 5.81 µM

Data point: Cc1c(CN2CCCC2)cc(-c2ccc(Cl)cc2)n1Nc1ccnc2cc(Cl)ccc12 ; CC50 at 72 h = 7.18 µM

Data point: CCN(CC)Cc1cc(-c2ccc(F)cc2)n(Nc2ccnc3cc(Cl)ccc23)c1C ; CC50 at 72 h = 18.6 µM

Data point: CCN(CC)CCCC(C)Nc1ccnc2cc(Cl)ccc12 (stereo not given) ; CC50 at 72 h = > 32 µM
